Source listed as patent US9828396B2.

These compounds were tested on Human factor D (Homo sapiens (Human)); IC50 is the recorded read-out.
Sequence (P00746 26-253): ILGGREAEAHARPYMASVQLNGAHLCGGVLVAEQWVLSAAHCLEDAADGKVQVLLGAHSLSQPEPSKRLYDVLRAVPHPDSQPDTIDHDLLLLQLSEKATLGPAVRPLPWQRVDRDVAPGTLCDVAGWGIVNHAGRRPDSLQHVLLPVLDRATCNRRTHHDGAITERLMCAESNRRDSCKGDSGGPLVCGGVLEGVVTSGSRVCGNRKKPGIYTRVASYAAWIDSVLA

Sample records with IC50:
NC(=O)c1nn(CC(=O)N2C[C@H](F)C[C@H]2C(=O)Nc2cc(C(F)(F)F)cc(Cl)n2)c2ccc(C#Cc3ncc(F)cn3)cc12	< 1000 nM
N#Cc1ccc(C#Cc2ccc3c(c2)c(C(N)=O)nn3CC(=O)N2[C@@H]3C[C@@H]3C[C@H]2C(=O)Nc2cccc(Br)n2)nc1	< 1000 nM
COc1nc(C#Cc2ccc3c(c2)c(C(N)=O)nn3CC(=O)N2C[C@H](F)C[C@H]2C(=O)Nc2cccc(-c3ccccc3Cl)c2F)ncc1F	< 1000 nM
CC(=O)c1cn(CC(=O)N2C[C@H](F)C[C@H]2C(=O)NCc2cccc(Cl)c2F)c2cc(C#C[Si](C)(C)C)ccc12	< 1000 nM
NC(=O)c1nn(CC(=O)N2C[C@H](F)C[C@H]2C(=O)Nc2cccc(Br)n2)c2ccc(C#Cc3ncccn3)cc12	< 1000 nM
CC(=O)c1cn(CC(=O)N2C[C@H](F)C[C@H]2C(=O)NCc2cccc(Cl)c2F)c2ccc(C#Cc3ccccn3)cc12	< 1000 nM
NC(=O)c1nn(CC(=O)N2C[C@H](F)C[C@H]2C(=O)Nc2cccc(Cl)n2)c2ccc(C#Cc3ccnnc3)cc12	< 1000 nM
NC(=O)c1nn(CC(=O)N2C[C@H](F)C[C@H]2C(=O)Nc2cccc(-c3ccccc3Cl)c2F)c2ccc(C#Cc3cccnn3)cc12	< 1000 nM

IC50 for Human factor D (Homo sapiens (Human)) with input NC(=O)c1nn(CC(=O)N2C[C@H](F)C[C@H]2C(=O)Nc2cccc(-c3ccccc3Cl)c2F)c2ccc(C#Cc3ncccn3)cc12 equals < 1000 nM
